Biological target: T1, human IL-17A/F heterodimer (human, UniProt Q16552 24-155; Q96PD4 31-163, limits assumed)
T1 construct: bought, made in E. coli (R&D Systems 5194-IL/CF); also called hIL-17A/F; hIL17A/F
T1 sequence (Q16552 24-155 limits assumed, chain 1 of 2): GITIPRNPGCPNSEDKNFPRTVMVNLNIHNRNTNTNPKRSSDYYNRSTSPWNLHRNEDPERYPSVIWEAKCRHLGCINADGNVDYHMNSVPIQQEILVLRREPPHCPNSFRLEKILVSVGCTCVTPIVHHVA
T1 sequence (Q96PD4 31-163 limits assumed, chain 2 of 2): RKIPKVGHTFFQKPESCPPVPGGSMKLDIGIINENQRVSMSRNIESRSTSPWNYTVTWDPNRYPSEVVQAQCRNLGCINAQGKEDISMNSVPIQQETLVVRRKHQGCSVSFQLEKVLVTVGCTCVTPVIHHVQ
Experiment: SPR (Biacore) off-rate
QUANTITY KIND: koff (s⁻¹)
Answers are plain numbers, in s⁻¹.

Example entries begin here.
Task item: Name the recorded koff for IL17MS3034 (VHH, variant of IL17MS13E02; Kabat numbering) VHH: EVQLVESGGGLVQAGGSLRLSCAASGRTYDALGWLRQAPGKEREFVAAISGSGDDTYYADSVKGRFTISKDNAGITMYLQMNSLKPEDTAVYYCATRRGLYYVWDSNDYENWGQGTQVTVSS .
Reply: 4.02e-05

Task item: Requested read-out: koff. Entry: IL17MS3021 (VHH, variant of IL17MS13E02; Kabat numbering) VHH: EVQLVESGGGLVQPGGSLRLSCAASGRTYDAMGWLRQAPGKEREFVAAISGSGDDTYYADSVKGRFTISKDNSKITMYLQMNSLRPEDTAVYYCATRRGLYYVWDSNDYENWGQGTLVTVSS
Reply: 6.43e-05

Task item: Name the reported koff value associated with the binder IL17MS3038 (VHH, variant of IL17MS13E02; Kabat numbering) VHH: EVQLVESGGGLVQAGGSLRLSCAASGRTYDAVGWLRQAPGKEREFVAAISGSGDDTYYADSVKGRFTISKDNAGITMYLQMNSLKPEDTAVYYCATRRGLYYVWDSNDYENWGQGTQVTVSS
Reply: 6.82e-05

Hey, can you go through the list below and give me koff for every item?
1. IL17MS3036 (VHH, variant of IL17MS13E02; Kabat numbering) VHH: EVQLVESGGGLVQAGGSLRLSCAASGRTYDAMGWLRQAPGKEREFVAAISGSGDDTYYADSVKGRFTISKDNAGITMYLQMNSLKPEDTAVYYCATRRGLYYVWDTNDYENWGQGTQVTVSS
2. IL17MS3035 (VHH, variant of IL17MS13E02; Kabat numbering) VHH: EVQLVESGGGLVQAGGSLRLSCAASGRTYDAMGWLRQAPGKEREFVAAISGSGDDTYYADSVKGRFTISKDNAGITLYLQMNSLKPEDTAVYYCATRRGLYYVWDSNDYENWGQGTQVTVSS
3. IL17MS3022 (VHH, variant of IL17MS13E02; Kabat numbering) VHH: EVQLVESGGGLVQPGGSLRLSCAASGRTYDAMGWLRQAPGKEREFVAAISGSGDDTYYADSVKGRFTISKDNSGNTMYLQMNSLRPEDTAVYYCATRRGLYYVWDSNDYENWGQGTLVTVSS

Reply:
1: 4.31e-05; 2: 3.65e-05; 3: 9.89e-06

Task item: // returns reported koff for input IL17MS3039 (VHH, variant of IL17MS13E02; Kabat numbering) VHH: EVQLVESGGGLVQAGGSLRLSCAASGRTYDAMGWLRQAPGKEREFVAAISGSGDDTYYADSVKGRFTISKDNAGITVYLQMNSLKPEDTAVYYCATRRGLYYVWDSNDYENWGQGTQVTVSS
Reply: 4.03e-05
